Recorded values, source paper PMC9209526.

target.entity: T1, N4posAbl: wildtype Abl kinase domain (residues 229-512) with a positively charged peptide tail (N4pos tag, … (human, UniProt P00519 229-512))
T1 sequence (looked up): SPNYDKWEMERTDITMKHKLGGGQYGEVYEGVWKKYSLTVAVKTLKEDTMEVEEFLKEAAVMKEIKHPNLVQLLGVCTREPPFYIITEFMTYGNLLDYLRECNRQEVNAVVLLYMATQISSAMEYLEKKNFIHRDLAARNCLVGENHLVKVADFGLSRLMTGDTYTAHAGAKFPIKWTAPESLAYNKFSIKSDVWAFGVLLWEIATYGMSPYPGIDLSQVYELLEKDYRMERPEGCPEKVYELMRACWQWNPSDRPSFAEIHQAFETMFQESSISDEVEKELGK
procedure.text: ClyA nanopore tweezers (single-channel current recording); single Abl kinase molecule trapped in a ClyA-AS nanopore in a DPhPC bilayer; Abltide titrated with 10 mM MgCl2; occupancy of the bound state against concentration fitted with a single site binding model; -80 mV, 150 mM NaCl, 100 mM Tris-HCl, pH 7.5, 22 °C, ~100 nM kinase in cis
measurement.parameters: both partners purified
property.label: pKd
Quick note: pKd values are minus log10 of concentrations in mol/L.

Sample KKGEAIYAAPFA (Abl substrate peptide Abltide) [kinase substrate peptide Abltide] ; pKd observed: 4.16
